This listing pairs compounds with measured Minimum Inhibitory Concentration (activity).
Test system: P. aeruginosa H187
Format: cell-based, Pseudomonas aeruginosa
Conditions: H187
Only the number, expressed in µg/mL, is required.

CC(C)C[C@@H]1NC(=O)[C@H](CCCCN)NC(=O)[C@H](C(C)C)NC(=O)[C@@H]2CCCN2C(=O)[C@@H](Cc2ccc(O)cc2)NC(=O)[C@H](CC(C)C)NC(=O)[C@H](CCCCN)NC(=O)[C@H](C(C)C)NC(=O)[C@H](CCCCN)NC(=O)[C@H](CC(C)C)NC(=O)[C@H]2CCCN2C(=O)[C@@H](Cc2ccc(O)cc2)NC(=O)[C@H](C(C)C)NC(=O)[C@H](CCCCN)NC1=O: 200
CC(C)C[C@@H]1NC(=O)[C@H](CCCCN)NC(=O)[C@H](CC(C)C)NC(=O)[C@@H]2CCCN2C(=O)[C@@H](Cc2ccc(O)cc2)NC(=O)[C@H](CC(C)C)NC(=O)[C@@H](CCCCN)NC(=O)[C@H](CC(C)C)NC(=O)[C@H](CCCCN)NC(=O)[C@H](CC(C)C)NC(=O)[C@@H]2CCCN2C(=O)[C@@H](Cc2ccc(O)cc2)NC(=O)[C@H](CC(C)C)NC(=O)[C@H](CCCCN)NC1=O: 100
CC(C)C[C@@H]1NC(=O)[C@H](CCCCN)NC(=O)[C@H](C(C)C)NC(=O)[C@H](CCCCN)NC(=O)[C@@H]2CCCN2C(=O)[C@@H](Cc2ccc(O)cc2)NC(=O)[C@H](CCCCN)NC(=O)[C@H](CC(C)C)NC(=O)[C@H](CCCCN)NC(=O)[C@H](C(C)C)NC(=O)[C@H](CCCCN)NC(=O)[C@@H]2CCCN2C(=O)[C@@H](Cc2ccc(O)cc2)NC(=O)[C@H](CCCCN)NC1=O: 12.5

Task item: Quickly give me recorded Minimum Inhibitory Concentration (activity) for CC(C)C[C@@H]1NC(=O)[C@H](CCCCN)NC(=O)[C@H](C(C)C)NC(=O)[C@H](CCCCN)NC(=O)[C@H](CC(C)C)NC(=O)[C@@H]2CCCN2C(=O)[C@@H](Cc2ccc(O)cc2)NC(=O)[C@H](C(C)C)NC(=O)[C@H](CCCCN)NC(=O)[C@H](CC(C)C)NC(=O)[C@@H](CCCCN)NC(=O)[C@H](C(C)C)NC(=O)[C@@H]2CCCN2C(=O)[C@@H](Cc2ccc(O)cc2)NC1=O
Reply: 75

Task item: Quickly give me recorded Minimum Inhibitory Concentration (activity) for CC(C)C[C@@H]1NC(=O)[C@H](CCCCN)NC(=O)[C@H](C(C)C)NC(=O)[C@@H]2CCCN2C(=O)[C@@H](Cc2ccc(O)cc2)NC(=O)[C@H](CC(C)C)NC(=O)[C@H](CCCCN)NC(=O)[C@H](C(C)C)NC(=O)[C@H](CCCCN)NC(=O)[C@@H](CC(C)C)NC(=O)[C@@H]2CCCN2C(=O)[C@@H](Cc2ccc(O)cc2)NC(=O)[C@H](C(C)C)NC(=O)[C@H](CCCCN)NC1=O
Reply: 37

Task item: Quickly give me recorded Minimum Inhibitory Concentration (activity) for CC(C)C[C@@H]1NC(=O)[C@H](CCCCN)NC(=O)[C@H](C)NC(=O)[C@@H]2CCCN2C(=O)[C@@H](Cc2ccc(O)cc2)NC(=O)[C@H](CC(C)C)NC(=O)[C@H](CCCCN)NC(=O)[C@H](C)NC(=O)[C@H](CCCCN)NC(=O)[C@H](CC(C)C)NC(=O)[C@@H]2CCCN2C(=O)[C@@H](Cc2ccc(O)cc2)NC(=O)[C@H](C)NC(=O)[C@@H](CCCCN)NC1=O
Reply: 75

Task item: Quickly give me recorded Minimum Inhibitory Concentration (activity) for CC(C)C[C@@H]1NC(=O)[C@H](CCCCN)NC(=O)[C@H](C(C)C)NC(=O)[C@@H]2CCCN2C(=O)[C@@H](Cc2ccc(O)cc2)NC(=O)[C@H](CC(C)C)NC(=O)[C@H](CCCCN)NC(=O)[C@H](C(C)C)NC(=O)[C@H](CCCCN)NC(=O)[C@H](CC(C)C)NC(=O)[C@@H]2CCCN2C(=O)[C@H](Cc2ccc(O)cc2)NC(=O)[C@H](C(C)C)NC(=O)[C@H](CCCCN)NC1=O
Reply: 200

Task item: Quickly give me recorded Minimum Inhibitory Concentration (activity) for CC(C)C[C@@H]1NC(=O)[C@H](CCCCN)NC(=O)[C@H](C(C)C)NC(=O)[C@H](CCCCN)NC(=O)[C@@H]2CCCN2C(=O)[C@@H](Cc2ccc(O)cc2)NC(=O)[C@H](CCCCN)NC(=O)[C@H](CC(C)C)NC(=O)[C@H](CCCCN)NC(=O)[C@H](C(C)C)NC(=O)[C@@H](CCCCN)NC(=O)[C@@H]2CCCN2C(=O)[C@@H](Cc2ccc(O)cc2)NC(=O)[C@H](CCCCN)NC1=O
Reply: 12.5

Task item: Quickly give me recorded Minimum Inhibitory Concentration (activity) for CC(C)[C@@H]1NC(=O)[C@H](CCCCN)NC(=O)[C@H](C)NC(=O)[C@@H]2CCCN2C(=O)[C@@H](Cc2ccc(O)cc2)NC(=O)[C@H](C(C)C)NC(=O)[C@@H](CCCCN)NC(=O)[C@H](C)NC(=O)[C@H](CCCCN)NC(=O)[C@H](C(C)C)NC(=O)[C@@H]2CCCN2C(=O)[C@@H](Cc2ccc(O)cc2)NC(=O)[C@H](C)NC(=O)[C@H](CCCCN)NC1=O
Reply: 200

Recorded values, source patent US6358921B1.
